Parameter: BUN levels. Scope: all listed entries.
# Test name: Kidney function, BUN, urine protein to creatinine ratio in cynomolgus monkeys (Example 46)
# Assay type: in vivo
# Run conditions: Day −5 (before start of treatment)
# Description: Groups, each consisting of two male and two female monkeys, were injected subcutaneously with 25 mg/kg of ISIS 416850, ISIS 449709, ISIS 445522, ISIS 449710, ISIS 449707, ISIS 449711, ISIS 449708, 416858, and ISIS 445531. […] Body weights were taken 14 days and 7 days before the start of treatment and were then measured weekly throughout the treatment period. […]
Strand notation (5' to 3'): a small letter for the sugar, then the base; units joined by * are phosphorothioate-linked, units joined directly phosphodiester-linked; [ ] holds rarer units or linkages, { } end groups; capitals alone tell only the bases. e = 2'-O-(2-methoxyethyl) (MOE); [5mC] = 5-methylcytosine; d = 2'-deoxy (DNA)
Numbers only; they are read as mg/dL.

ISIS 449710: 3-8-3, 4-8-4, 2-10-2, 3-10-3 or 4-10-4 MOE microwalk gapmer (Table 46) (antisense e[5mC]*eA*e[5mC]*dA*dG*dT*dT*dT*d[5mC]*dT*dG*dG*d[5mC]*eA*eG*eG); 19
ISIS 449711: 3-8-3, 4-8-4, 2-10-2, 3-10-3 or 4-10-4 MOE microwalk gapmer (Table 46) (antisense eA*e[5mC]*dA*dG*dT*dT*dT*d[5mC]*dT*dG*dG*d[5mC]*eA*eG); 22
ISIS 449707: 3-8-3, 4-8-4, 2-10-2, 3-10-3 or 4-10-4 MOE microwalk gapmer (Table 46) (antisense e[5mC]*eA*e[5mC]*eA*dG*dT*dT*dT*d[5mC]*dT*dG*dG*e[5mC]*eA*eG*eG); 21

Here's the next entry for you.
What value of measured BUN levels is listed for ISIS 445531: 5-8-5 or 6-8-6 MOE microwalk gapmer (Table 44) (antisense eG*eG*e[5mC]*eA*eT*dT*dG*dG*dT*dG*d[5mC]*dA*d[5mC]*eA*eG*eT*eT*eT) ?
18

###

# Test name: Hematology assays in cynomolgus monkeys (Example 45)
# Format: in vivo
# Run conditions: day 36; escalating dose regimen
Quantity name: hematocrit (%)
Numbers only; they are read as %.

Study these solved cases before continuing.
ISIS 416864: MOE gapmer, nucleobases 1275 to 1318 of SEQ ID NO: 1 (Table 8) (antisense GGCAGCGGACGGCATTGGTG; MOE gapmer, wing and gap sizes not given here); 42
ISIS 416838: MOE gapmer, nucleobases 1018 to 1042 of SEQ ID NO: 1 (Table 6) (antisense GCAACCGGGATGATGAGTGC; MOE gapmer, wing and gap sizes not given here); 43
ISIS 416850: MOE gapmer, nucleobases 1275 to 1318 of SEQ ID NO: 1 (Table 8) (antisense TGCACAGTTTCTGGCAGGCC; MOE gapmer, wing and gap sizes not given here); 42

What value of measured hematocrit is listed for ISIS 417002: MOE gapmer, nucleobases 1275 to 1318 of SEQ ID NO: 1 (Table 8) (antisense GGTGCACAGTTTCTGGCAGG; MOE gapmer, wing and gap sizes not given here) ?
42

What value of measured hematocrit is listed for ISIS 416858: MOE gapmer, nucleobases 1275 to 1318 of SEQ ID NO: 1 (Table 8) (antisense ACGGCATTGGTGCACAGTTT; MOE gapmer, wing and gap sizes not given here) ?
40

###

Parameter: body weights. Scope: all listed entries.
# Test name: Body and organ weights of cynomolgus monkeys (Example 45)
# Assay type: in vivo
# Run conditions: day 22; escalating dose regimen
Numbers only; they are read as g.

Study these solved cases before continuing.
ISIS 417002: MOE gapmer, nucleobases 1275 to 1318 of SEQ ID NO: 1 (Table 8) (antisense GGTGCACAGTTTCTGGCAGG; MOE gapmer, wing and gap sizes not given here); 2617
ISIS 416850: MOE gapmer, nucleobases 1275 to 1318 of SEQ ID NO: 1 (Table 8) (antisense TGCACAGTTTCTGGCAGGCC; MOE gapmer, wing and gap sizes not given here); 2514

What value of measured body weights is listed for ISIS 416864: MOE gapmer, nucleobases 1275 to 1318 of SEQ ID NO: 1 (Table 8) (antisense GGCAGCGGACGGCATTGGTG; MOE gapmer, wing and gap sizes not given here) ?
2857

What value of measured body weights is listed for ISIS 416858: MOE gapmer, nucleobases 1275 to 1318 of SEQ ID NO: 1 (Table 8) (antisense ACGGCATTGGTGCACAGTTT; MOE gapmer, wing and gap sizes not given here) ?
2800

What value of measured body weights is listed for ISIS 416838: MOE gapmer, nucleobases 1018 to 1042 of SEQ ID NO: 1 (Table 6) (antisense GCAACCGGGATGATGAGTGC; MOE gapmer, wing and gap sizes not given here) ?
2702

###

# Test name: Hematology assays in cynomolgus monkeys (Example 45)
# Format: in vivo
# Run conditions: day 64; escalating dose regimen
Quantity name: hematocrit (%)
Numbers only; they are read as %.

ISIS 416858: MOE gapmer, nucleobases 1275 to 1318 of SEQ ID NO: 1 (Table 8) (antisense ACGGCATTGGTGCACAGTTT; MOE gapmer, wing and gap sizes not given here); 42
ISIS 417002: MOE gapmer, nucleobases 1275 to 1318 of SEQ ID NO: 1 (Table 8) (antisense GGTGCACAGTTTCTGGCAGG; MOE gapmer, wing and gap sizes not given here); 41
ISIS 416838: MOE gapmer, nucleobases 1018 to 1042 of SEQ ID NO: 1 (Table 6) (antisense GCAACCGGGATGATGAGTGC; MOE gapmer, wing and gap sizes not given here); 44
ISIS 416850: MOE gapmer, nucleobases 1275 to 1318 of SEQ ID NO: 1 (Table 8) (antisense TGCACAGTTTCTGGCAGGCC; MOE gapmer, wing and gap sizes not given here); 43

Here's the next entry for you.
What value of measured hematocrit is listed for ISIS 416864: MOE gapmer, nucleobases 1275 to 1318 of SEQ ID NO: 1 (Table 8) (antisense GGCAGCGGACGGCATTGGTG; MOE gapmer, wing and gap sizes not given here) ?
42

###

Parameter: Platelets. Scope: all listed entries.
# Run conditions: rat, in vivo, sc, 50 mg/kg
e = 2'-O-(2-methoxyethyl) (MOE); d = 2'-deoxy (DNA)

Study these solved cases before continuing.
ISIS 416892: 3-14-3 MOE gapmer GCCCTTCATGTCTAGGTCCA (sugars from the 5' end e3 d14 e3, backbone and methylation of C not given here); 66 10^3/μL
ISIS 416825: 5-10-5 MOE gapmer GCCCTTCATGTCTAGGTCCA (sugars from the 5' end e5 d10 e5, backbone and methylation of C not given here); 6 10^3/μL
ISIS 416826: 5-10-5 MOE gapmer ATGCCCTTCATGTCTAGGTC (sugars from the 5' end e5 d10 e5, backbone and methylation of C not given here); 11 10^3/μL
ISIS 416999: MOE gapmer, nucleobases 1275 to 1318 of SEQ ID NO: 1 (Table 8) (antisense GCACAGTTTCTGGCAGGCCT; MOE gapmer, wing and gap sizes not given here); 12 10^3/μL
ISIS 417003: MOE gapmer, nucleobases 1275 to 1318 of SEQ ID NO: 1 (Table 8) (antisense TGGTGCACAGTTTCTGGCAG; MOE gapmer, wing and gap sizes not given here); 19 10^3/μL

Here's the next entry for you.
What value of measured Platelets is listed for ISIS 416925: MOE gapmer, nucleobases 1275 to 1318 of SEQ ID NO: 1 (Table 8) (antisense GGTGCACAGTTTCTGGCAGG; MOE gapmer, wing and gap sizes not given here) ?
8 10^3/μL

###

Parameter: MCH. Scope: all listed entries.
# Test name: Hematology assays in cynomolgus monkeys (Example 45)
# Format: in vivo
# Run conditions: day 22; escalating dose regimen
# Description: Groups, each consisting of two male and three female monkeys, were injected subcutaneously with ISIS 416838, ISIS 416850, ISIS 416858, ISIS 416864, or ISIS 417002 in escalating doses. […] Body weights were measured weekly. […]
Numbers only; they are read as pg.

ISIS 416850: MOE gapmer, nucleobases 1275 to 1318 of SEQ ID NO: 1 (Table 8) (antisense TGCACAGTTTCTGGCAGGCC; MOE gapmer, wing and gap sizes not given here); 24
ISIS 416838: MOE gapmer, nucleobases 1018 to 1042 of SEQ ID NO: 1 (Table 6) (antisense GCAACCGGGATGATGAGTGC; MOE gapmer, wing and gap sizes not given here); 23
ISIS 416864: MOE gapmer, nucleobases 1275 to 1318 of SEQ ID NO: 1 (Table 8) (antisense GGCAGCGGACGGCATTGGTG; MOE gapmer, wing and gap sizes not given here); 23
ISIS 416858: MOE gapmer, nucleobases 1275 to 1318 of SEQ ID NO: 1 (Table 8) (antisense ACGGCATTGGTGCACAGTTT; MOE gapmer, wing and gap sizes not given here); 24

Here's the next entry for you.
What value of measured MCH is listed for ISIS 417002: MOE gapmer, nucleobases 1275 to 1318 of SEQ ID NO: 1 (Table 8) (antisense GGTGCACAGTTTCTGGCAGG; MOE gapmer, wing and gap sizes not given here) ?
23
